# Tested on: Mus musculus
# ASSAY COMMENT: Potentiation of 5-hydroxytryptophan-induced head twitch in mice after oral administration
# Format: functional
MEASURED ENDPOINT: ED50

{"COMPOUND": "Cl.NCC1C[C@@]1(C(=O)O)c1ccccc1 (stereo partly specified)", "ED50": "> 100 mg/kg"}
{"COMPOUND": "CCCOC(=O)[C@@]1(c2ccccc2)CC1CN(C)C.O=C(O)/C=C/C(=O)O (stereo partly specified)", "ED50": "> 100 mg/kg"}

Answer for every listed entry: what is its ED50? The entries follow.
1. CCOC(=O)[C@@]1(c2ccccc2)CC1CN(C)CCc1ccccc1.Cl (stereo partly specified)
2. CCN(CC)C(=O)[C@]1(c2ccccc2)C[C@@H]1CN.Cl [1R,2S-MILNACIPRAN HYDROCHLORIDE]
3. CCCCCCN(CCCCCC)C(=O)[C@@]1(c2ccccc2)CC1CN.O=C(O)C(=O)O (stereo partly specified)
4. CCN(CC)C(=O)[C@@]1(c2ccccc2)CC1CNC.O=C(O)C(=O)O (stereo partly specified)

1. > 30 mg/kg
2. > 100 mg/kg
3. > 1000 mg/kg
4. > 100 mg/kg

---

# Test system: Mus musculus
# ASSAY COMMENT: Antagonism of tetrabenazine-induced ptosis in mice was evaluated after oral administration
# Format: functional
What ED50 was measured for each of the following?
One number for each entry, in mg/kg.

{"COMPOUND": "CCN(CC)C(=O)[C@]1(c2ccc(F)cc2)CC1CN.Cl (some centres undefined)", "ED50 [mg/kg]": 10}

Answer for every listed entry: what is its ED50? The entries follow.
1. CNCCCN1c2ccccc2CCc2ccccc21
2. CCN(CC)C(=O)[C@]1(c2ccccc2)C[C@H]1CN.Cl
3. CN(C)CCCN1c2ccccc2CCc2ccc(Cl)cc21
4. CCOC(=O)[C@@]1(c2ccc(Cl)cc2)CC1CN(C)C.Cl (some centres undefined)

1: 3; 2: 0.5; 3: 9; 4: 6

Which ED50 value belongs to CC(C)OC(=O)[C@@]1(c2ccccc2)CC1CN(C)C.Cl (some centres undefined) ? 7

---

# Tested on: Mus musculus
# ASSAY COMMENT: Antagonism of tetrabenazine-induced ptosis in mice was evaluated after oral administration
# Assay type: functional
MEASURED ENDPOINT: ED50

{"MOLECULE": "CCN(CC)C(=O)[C@]1(c2ccccc2)C[C@@H]1CN.Cl [1R,2S-MILNACIPRAN HYDROCHLORIDE]", "ED50": "> 30 mg/kg"}

Answer for every listed entry: what is its ED50? The entries follow.
1. CCCCN(CCCC)C(=O)[C@@]1(c2ccccc2)CC1CN.O=C(O)C(=O)O (stereo partly drawn)
2. CCCCCCN(CCCCCC)C(=O)[C@@]1(c2ccccc2)CC1CN.O=C(O)C(=O)O (stereo partly drawn)

1. > 30 mg/kg
2. > 30 mg/kg
